Every entry's value here was drawn from PubChem BioAssay (NCATS).

- protocol-summary: qHTS for Inhibitors of ATXN expression: Validation (AID 588378); also: nearly all actives have a fitted effect of over 75% in size
- measurement-context: cell-based ATXN2 expression reporter assay, luminescence; series mostly up to 57.1 µM
Records with an inconclusive call do not appear. Calls of active or inactive are those of the source. Calls follow the shape of the dose curve; as a rule, active = well fitted inhibition curve with a large enough effect; inconclusive = small, poorly fitted or top-dose-only effect; inactive = no such curve, though single readings can be large or run the other way.
One label from this list, please: active, inactive

smiles=O=c1c2ccccc2[se]n1-c1ccccc1 discrete_label=inactive
smiles=C[C@@H]1O[C@H](C[N+](C)(C)C)CS1 discrete_label=inactive

Input line: Give the logged outcome of this assay for the following compound: CCn1cnc2c(Nc3cccc(Cl)c3)nc(N[C@@H]3CCCC[C@@H]3N)nc21
Output line: active

* * *

- target-of-assay: N-terminal Xaa-Pro-Lys N-methyltransferase 1 (Homo sapiens)
- protocol-summary: qHTS Assay for Inhibitors of N-terminal methyltransferase 1 (NTMT1): LOPAC validation of the NTMT1 SAHH-coupled ThioGlo3 Assay (AID 1347143);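 also: SAH from peptide methylation measured as thiol fluorescence via SAHH coupling and ThioGlo3; nearly all actives have a fitted effect of over 70% in size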
- measurement-context: recombinant NTMT1, SAHH-coupled ThioGlo3 fluorescence; series mostly up to 114 µM
Records with an inconclusive call do not appear. The source made the active and inactive calls. Calls follow the shape of the dose curve; as a rule, active = well fitted inhibition curve with a large enough effect; inconclusive = small, poorly fitted or top-dose-only effect; inactive = no such curve, though single readings can be large or run the other way.
One label from this list, please: True for active, False for inactive

These recorded examples may help you get a feel for the data.
compound="C[N+]1(C)C2CCC1CC(OC(=O)c1c[nH]c3ccccc13)C2 (stereo not given)" discrete_label=True
compound="OC1CCCCC1N1CCC(c2ccccc2)CC1 (stereo not given)" discrete_label=False
compound=N#C/C(=C/c1ccc(O)c(O)c1)C(N)=S discrete_label=True

Input line: Give the logged outcome of this assay for the following compound: NCCCP(=O)(O)O
Output line: False

Input line: Give the logged outcome of this assay for the following compound: O=c1ccc2[nH]cc(C3=CCNCC3)c2[nH]1
Output line: True

* * *

Documented max response across a set of compounds
- protocol-summary: qHTS Assay for Lipid Storage Modulators (AID 1519)
- measurement-context: Drosophila S3 cells, BODIPY lipid droplet/cell ratio, laser cytometry; measured here: lipid channel max response; cells loaded with oleic acid
Inconclusive results are not listed.
Field: numeric (%). Do not append units.

Input line: GET /values?readout=max response&item= O=c1ccc2[nH]cc(C3=CCNCC3)c2[nH]1
Output line: 20.6

Input line: GET /values?readout=max response&item= ClC1C(Cl)C(Cl)C(Cl)C(Cl)C1Cl (centres undefined)
Output line: 20.6

Input line: GET /values?readout=max response&item= CN1C2CCC1CC(OC(c1ccccc1)c1ccc(Cl)cc1)C2 (centres undefined)
Output line: -25.4

Input line: GET /values?readout=max response&item= COc1ccc(CNC(=O)/C=C/c2ccc3[nH]cc(CCN(C)C)c3c2)cc1
Output line: -80.1

Input line: GET /values?readout=max response&item= CCCN1CC[C@@H]2c3cc(O)ccc3CC[C@@H]21
Output line: 49.1

* * *

- target-of-assay: Muscarinic acetylcholine receptor M1 (Rattus norvegicus)
- protocol-summary: qHTS Assay for Antagonists of Acetylcholine Muscarinic M1 Receptor: Measurement of IP-One Response (AID 944); also: nearly all actives have a fitted effect of over 75% in size
- measurement-context: CHO-M1 cells, IP-One HTRF, antagonist mode; series mostly up to 46.1 µM
Results filed as inconclusive are left out. Activity calls are given as the source filed them. Calls come from the whole dose curve; as a rule, active = well fitted inhibition curve with a large enough effect; inconclusive = small, poorly fitted or top-dose-only effect; inactive = no such curve, though single readings can be large or run the other way.
One label from this list, please: active, inactive

Input line: Give the logged outcome of this assay for the following compound: COc1ccc2[nH]c3c(c2c1)CCNC3
Output line: inactive

Input line: Give the logged outcome of this assay for the following compound: N#CCCN
Output line: inactive

Input line: Give the logged outcome of this assay for the following compound: O=P(O)(O)C(Cl)(Cl)P(=O)(O)O
Output line: inactive

* * *

Documented Potency across a set of compounds
- target-of-assay: Glucocorticoid receptor (Homo sapiens)
- protocol-summary: GR-GFP Redistribution (AID 450); also: potency is read from the fitted curve at half-maximal effect
- measurement-context: U2OS GR-GFP nuclear translocation, laser cytometry, 2 h
Calls of active or inactive are those of the source.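 Rule for the calls: active = compounds whose dose series gives a full or clear partial fitted curve of increased nuclear translocation; inconclusive = weak partial curve or effect only at the top dose; inactive = no dose-dependent translocation response.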

Input line: GET /values?readout=Potency&item= CP(=O)(O)C1=CCNCC1
Output line: > 46 µM (inactive)

Input line: GET /values?readout=Potency&item= C[N+](C)(C)CC#CCN1CCCC1=O
Output line: > 46 µM (inactive)

Input line: GET /values?readout=Potency&item= CN1[C@@H]2CC[C@H]1CC(OC1c3ccccc3CCc3ccccc31)C2 (stereo partly specified)
Output line: > 20.6 µM (inactive)

Input line: GET /values?readout=Potency&item= C[C@@H]1O[C@H](C[N+](C)(C)C)CS1
Output line: > 46 µM (inactive)

Input line: GET /values?readout=Potency&item= CCC1(C)CC(=O)NC(=O)C1
Output line: > 20.6 µM (inactive)

Input line: GET /values?readout=Potency&item= C[N+]1(C)[C@@H]2CC[C@H]1CC(OC(=O)c1c[nH]c3ccccc13)C2 (stereo partly specified)
Output line: > 46 µM (inactive)

* * *

- Test system: 7G8
- protocol-summary: qHTS profiling for inhibitors of Plasmodium falciparum proliferation (AID 504749); also: nearly all actives have a fitted effect of over 60% in size
- measurement-context: P. falciparum in erythrocytes, SYBR Green DNA, 72 h; series mostly up to 28.7 µM
Inconclusive results are not listed. The source made the active and inactive calls. Calls come from the whole dose curve; as a rule, active = well fitted inhibition curve with a large enough effect; inconclusive = small, poorly fitted or top-dose-only effect; inactive = flat fitted curve, though single readings scatter.
measure-name: outcome

molecule=O=C/C=C/c1ccccc1 measure_name=outcome assay_result=inactive
molecule="O=C(CS(=O)C(c1ccccc1)c1ccccc1)NO (stereo not drawn)" measure_name=outcome assay_result=inactive
molecule=CCC1(C)CC(=O)NC(=O)C1 measure_name=outcome assay_result=inactive

* * *

- target-of-assay: Estrogen receptor (Homo sapiens) (UniProt P03372)
- Sequence (P03372 whole entry, looked up): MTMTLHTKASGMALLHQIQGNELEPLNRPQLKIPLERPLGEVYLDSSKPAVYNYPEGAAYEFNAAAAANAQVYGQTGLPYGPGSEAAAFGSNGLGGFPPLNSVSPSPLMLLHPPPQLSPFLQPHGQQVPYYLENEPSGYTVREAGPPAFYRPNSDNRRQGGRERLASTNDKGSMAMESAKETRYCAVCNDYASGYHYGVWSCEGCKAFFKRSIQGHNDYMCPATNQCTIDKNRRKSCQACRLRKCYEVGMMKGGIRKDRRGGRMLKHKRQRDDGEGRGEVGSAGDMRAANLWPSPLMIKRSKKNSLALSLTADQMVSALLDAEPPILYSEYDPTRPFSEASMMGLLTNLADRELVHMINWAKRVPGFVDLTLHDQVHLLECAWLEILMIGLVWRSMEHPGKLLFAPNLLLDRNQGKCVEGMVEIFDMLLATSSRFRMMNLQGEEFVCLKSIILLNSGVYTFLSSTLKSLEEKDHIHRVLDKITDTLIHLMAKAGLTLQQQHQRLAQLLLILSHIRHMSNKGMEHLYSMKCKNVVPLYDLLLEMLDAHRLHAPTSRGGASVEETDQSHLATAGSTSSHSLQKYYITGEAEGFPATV
- protocol-summary: qHTS assay for small molecule antagonists of estrogen receptor alpha signaling (AID 588513)
- measurement-context: ER-alpha-UAS-bla HEK293, beta-lactamase ratio, antagonist mode; series mostly up to 76.9 µM
Active and inactive are the calls of the source. Calls come from the whole dose curve; as a rule, active = well fitted curve in the direction sought with a large enough effect in the signal ratio, with a control signal flat (not every such curve was filed as active); inconclusive = small, poorly fitted or top-dose-only effect, or effect the other way, or a change in a side signal; inactive = no such curve, though single readings can be large or run the other way; the % refers to the signal ratio.
One label from this list, please: True for active, False for inactive

molecule="C[C@H]1CC[C@@H]2[C@@H](C)[C@H]3[C@H](C[C@H]4[C@@H]5CC=C6CC(O[C@@H]7O[C@H](CO)[C@H](O)[C@H](O[C@@H]8O[C@H](CO)[C@@H](O)[C@H](O)[C@H]8O)[C@H]7O[C@H]7O[C@@H](C)[C@H](O)[C@@H](O)[C@H]7O)CC[C@]6(C)[C@H]5CC[C@]34C)N2C1 (some centres undefined)" discrete_label=True
molecule=O=[N+]([O-])c1ccc(F)c([N+](=O)[O-])c1 discrete_label=False
molecule=[Cl-].[Cl-].[Hg+2] discrete_label=True

Turning now to a further record.
Input line: Give the logged outcome of this assay for the following molecule: CC(C)Nc1ccc(Nc2ccccc2)cc1
Output line: True

* * *

- Test system: Tov112D
- protocol-summary: Primary qHTS to identify gynecologic anti-cancer compounds using libraries of approved drugs and bioactive compounds (AID 1345084); also: % is scaled to controls: 0 for no effect and ±100 for the full control effect; nearly all actives have a fitted effect of over 55% in size
- measurement-context: Gynecologic cancer cell panel viability, ATPlite luminescence, 48 h; series mostly up to 57.5 µM
Inconclusive results are not listed. Activity calls are given as the source filed them. The call rests on the fitted dose curve; in most records, active means well fitted cell-killing curve with a large enough effect; inconclusive means small, poorly fitted or top-dose-only effect, or effect the other way; inactive means flat fitted curve, though single readings scatter.
measure-name: outcome

molecule="CC(=O)OC12C(O)C(C)C3(O)C4C=C(C)C(=O)C4CC(CO)=CC3C1C2(C)C (stereo not drawn)" assay_result=inactive
molecule="COC1CC(=O)C23C(=O)NC(CC(C)C)C2C(C)=C(C)C(OO)C3/C=C(\\C)CCC(O)C1O (stereo not drawn)" assay_result=inactive
molecule="COC(=O)[C@@]12C(=O)C(C)C(=O)[C@]1(C)C(C)=C[C@H]1[C@]3(C=O)CC[C@H](OC(C)=O)C(C)(C)[C@H]3CC[C@@]12C (stereo partly drawn)" assay_result=inactive

* * *

- System: CP256
- protocol-summary: qHTS profiling for inhibitors of Plasmodium falciparum proliferation (AID 504749); also: nearly all actives have a fitted effect of over 60% in size
- measurement-context: P. falciparum in erythrocytes, SYBR Green DNA, 72 h; series mostly up to 28.7 µM
Inconclusive results are not listed. Active and inactive are the calls of the source. The call rests on the fitted dose curve; in most records, active means well fitted inhibition curve with a large enough effect; inconclusive means small, poorly fitted or top-dose-only effect; inactive means flat fitted curve, though single readings scatter.
One label from this list, please: active, inactive

These recorded examples may help you get a feel for the data.
compound=c1csc(C2(N3CCCCC3)CCCCC2)c1 discrete_label=inactive
compound=O=c1[nH]cc(N(CCCl)CCCl)c(=O)[nH]1 discrete_label=inactive
compound=O=C/C=C/c1ccccc1 discrete_label=inactive
compound="NCC(O)c1cccc(O)c1 (configuration not stated)" discrete_label=inactive
compound="COc1ccc(OC)c(C(O)C(C)N)c1 (configuration not stated)" discrete_label=inactive

Input line: Give the logged outcome of this assay for the following compound: O=C(CS(=O)C(c1ccccc1)c1ccccc1)NO (configuration not stated)
Output line: inactive

Input line: Give the logged outcome of this assay for the following compound: Clc1ccc(Cl)cc1
Output line: inactive

Input line: Give the logged outcome of this assay for the following compound: CC1CCC(C(C)C)C(OC(=O)c2ccccc2N)C1 (configuration not stated)
Output line: inactive

Input line: Give the logged outcome of this assay for the following compound: CCC1(c2ccccc2)C(=O)NC(=O)N(C)C1=O (configuration not stated)
Output line: inactive

Input line: Give the logged outcome of this assay for the following compound: O=c1c2ccccc2[se]n1-c1ccccc1
Output line: inactive

Input line: Give the logged outcome of this assay for the following compound: ClC=C(Cl)Cl
Output line: inactive

Input line: Give the logged outcome of this assay for the following compound: C/C(=C\c1csc(C)n1)[C@@H]1C[C@@H]2O[C@]2(C)CCC[C@H](C)[C@H](O)[C@@H](C)C(=O)C(C)(C)[C@@H](O)CC(=O)O1
Output line: active

Input line: Give the logged outcome of this assay for the following compound: CC(=O)O[C@H]1CC[C@H]2[C@@H]3CCC4=CC(=O)CCC4=C3C=C[C@]12C
Output line: inactive

Input line: Give the logged outcome of this assay for the following compound: CCN(CC)C(=O)/C(Cl)=C(\C)OP(=O)(OC)OC
Output line: inactive

Input line: Give the logged outcome of this assay for the following compound: Oc1cc(Cl)c(Cl)cc1Cl
Output line: inactive

Input line: Give the logged outcome of this assay for the following compound: Clc1ccc(C2(Cn3cncn3)OCCO2)c(Cl)c1
Output line: inactive

Input line: Give the logged outcome of this assay for the following compound: S=C(S)N1CCNCC1
Output line: inactive
